The values you see were collected from PubChem BioAssay.

Assay: RPL19A-GFP modulators, yeast TOR pathway, confirmation, cell-based, S. cerevisiae, flow cytometry, cherry picks, mother/daughter gates (AID 2270)
Conditions: S. cerevisiae RPL19A-GFP strain, 3 h, at 10 µM, stronger effect = lower value, 100 = same GFP as DMSO wells
The following compounds are shown together with reported GFP response vs DMSO values.
Observable: GFP response vs DMSO (%)

> print(dat)
                               smiles.input  value
1  Cc1ccc(NN2C(=O)C=C(c3ccc(Cl)cc3)C2=O)cc1   83.9
2  COc1ccc(CNC(=O)c2c(O)c3ccccc3n(C)c2=O)cc1OC   96.9
3  O=C(COc1c(Br)cc(Br)c2cccnc12)N1CCc2ccccc2C1   98.2
4        O=C(NCCO)c1c(O)c2cccc3c2n(c1=O)CC3   99.3

* * *

Experiment: RPL19A-GFP modulators, yeast TOR pathway, confirmation, cell-based, S. cerevisiae, flow cytometry, cherry picks, mother/daughter gates (AID 2270)
Settings: S. cerevisiae RPL19A-GFP strain, 3 h, measured here: mother cell gate, at 10 µM, stronger effect = lower value, 100 = same GFP as DMSO wells
Observable: GFP response vs DMSO (%)

> print(dat)
                                    compound  value
 1  Cc1nn(Cc2ccc([N+](=O)[O-])cc2)c(=O)n1-c1cccc(Cl)c1   96.6
 2  CCOC(=O)C(N)CSC1CC(=O)N(c2ccc(C(=O)OC)cc2)C1=O (stereo unspecified)   98.7
 3  COc1cccc(-c2nnc(NC(=O)c3ccc(S(=O)(=O)N4CC(C)OC(C)C4)cc3)o2)c1 (stereo unspecified)    102
 4  C/C(=N/NS(=O)(=O)c1ccccc1)c1ccc(NC(=O)C(F)(F)F)cc1    103
 5              Cc1ccccc1C(=O)Nc1cccc(C#N)c1   94.2
 6         Clc1ccc(-c2nnnn2-c2ccc(Cl)cc2)cc1    100
 7  CS(=O)(=O)N1N=C(c2ccc(Br)cc2)CC1c1ccc2c(c1)OCO2 (stereo unspecified)    102
 8        COc1cccc(NC(=O)c2ccc3c(c2)CCCC3)c1    102
 9   O=C(NCc1ccncc1)C12CC3CC(CC(Cl)(C3)C1)C2   96.8
10  COc1cccc(/C=C2\C(=O)N(c3cccc(C)c3)C(=O)c3ccccc32)c1   92.8
11             O=C(/C=C/c1ccccc1)Nc1ncn[nH]1     96

* * *

Test: AGP1-GFP expression modulators, hit retest, confirmation, cell-based, flow cytometry, S. cerevisiae, cherry picks (AID 2273);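 further: median GFP channel fluorescence over the whole cell population gate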
Details: S. cerevisiae AGP1-GFP strain, 3 h, at 10 µM
Observable: GFP response, % of DMSO (%)

> print(dat)
                                    compound  unit.string  value
 1    CN(C)c1ccc(/C=N/NC(=O)c2ccc(Cl)cc2)cc1            %    100
 2  NC(=O)COc1ccc(C(=O)/C=C2/C(=O)Nc3ccccc32)cc1            %    107
 3  Cc1cccc(N=c2c([N+](=O)[O-])nn(-c3ccc(Cl)cc3)n2O)c1            %   90.4
 4  Cc1ccc(NC(=S)N2CCSC2c2cccs2)cc1 (configuration not stated)            %    101
 5              Oc1c(N=Nc2ccccn2)ccc2ccccc12            %   84.7
 6  CC(C(=O)NCCc1ccc(F)cc1)N1CCN(Cc2ccccc2)CC1 (configuration not stated)            %   98.5
 7  Cc1cc(O)c(C(=O)/C=C/c2ccc(Cl)cc2)c(=O)o1            %   99.7
 8  O=C(Nc1ccc(F)cc1)C1CCCN(c2cnccn2)C1 (configuration not stated)            %    105
 9    O=C1C(=O)c2ccc(-c3ccccc3)cc2-c2ccccc21            %   90.4
10      COc1ccc(NS(=O)(=O)c2cccc3ccccc23)cc1            %    101
11   CCOc1ccc(-c2nc(-c3ccc(OC)cc3)no2)cc1OCC            %     96
12        O=C1c2cccc3cccc(c23)C(=O)N1c1nccs1            %    106

* * *

Assay: modulators of CIT2-GFP expression in yeast, confirmation, S. cerevisiae, GFP fusion, cherry picks, mother/daughter gates (AID 2274)
Conditions: S. cerevisiae CIT2-GFP strain, flow cytometry, 3 h; measured here: mother cell gate; at 10 µM; stronger effect = higher value
The following compounds are shown together with reported GFP response, % of DMSO values.
Observable: GFP response, % of DMSO

> print(dat)
                                    compound  value
 1   O=C(O)Cn1cc(/C=C/[N+](=O)[O-])c2ccccc21  99.7%
 2            COc1ccc(CN2CN(C(C)C)CSC2=S)cc1  75.1%
 3  COc1ccc(C2=NN(S(C)(=O)=O)C(c3ccc4nccnc4c3)C2)cc1 (stereo unspecified)  91.2%
 4           CCn1c(=O)c(C(C)=O)c(O)c2ccccc21  91.9%
 5  Cc1cccc(N2C(=O)c3cccc4c(N(C)CCO)ccc(c34)C2=O)c1   104%
 6  COc1cc(NC(=O)C(C)C)ccc1NC(=O)c1cc2ccccc2o1   104%
 7  C/C(=N\NC(=O)COc1ccccc1-c1ccccc1)c1ccccn1  97.7%
 8  Cc1ccc(NC(=S)N/N=C/c2c(C)[nH]c3ccccc23)cc1   100%
 9  O=C(NCc1ccccn1)c1cc(-c2ccc(Cl)cc2)oc1C(F)(F)F   101%
10  COc1ccccc1OC(C)C(=O)Nc1ccccc1C(=O)NCC1CCCO1 (stereo unspecified)  96.8%
11    CN(C)c1ccc(/C=N/NC(=O)c2ccc(Cl)cc2)cc1  95.6%

* * *

Test: RPL19A-GFP modulators, yeast TOR pathway, confirmation, cell-based, S. cerevisiae, flow cytometry, cherry picks, mother/daughter gates (AID 2270)
Conditions: S. cerevisiae RPL19A-GFP strain, 3 h, at 10 µM, stronger effect = lower value, 100 = same GFP as DMSO wells
Observable: GFP response vs DMSO (%)

> print(dat)
                                    compound            observable  unit.string  value
 1   O=C(O)COc1c(-c2ccc(Cl)cc2)oc2ccccc2c1=O  GFP response vs DMSO            %     97
 2  Cc1cc(C=C2C(=O)c3ccccc3C2=O)c(C)n1-c1cccc(C(=O)O)c1  GFP response vs DMSO            %    100
 3          Oc1ccc(C2Nc3cccc4cccc(c34)N2)cc1  GFP response vs DMSO            %     99
 4                Cc1cc(N)ccc1NC(=O)c1ccccc1  GFP response vs DMSO            %    101
 5        COc1cccc(NC(=O)c2ccc3c(c2)CCCC3)c1  GFP response vs DMSO            %    101
 6  COc1ccc(C(=O)NC(=S)Nc2ccc(CN3CCOCC3)cc2)cc1  GFP response vs DMSO            %    101
 7   O=C(O/N=C(\c1ccccc1)c1ccncc1)c1ccccc1Cl  GFP response vs DMSO            %     77
 8  COc1ccc(C2CC(c3ccccc3)=NN2S(=O)(=O)c2ccc(C)cc2)c(OC)c1 (stereo unspecified)  GFP response vs DMSO            %    102
 9  O=[N+]([O-])c1c(Nc2ccccn2)cc(Cl)c2nonc12  GFP response vs DMSO            %    139
10  COC(=O)/C(=C/c1c[nH]c2ccccc12)[N+](=O)[O-]  GFP response vs DMSO            %   99.6
11  Cn1ncc2c(O/N=C(\N)c3ccc(C(C)(C)C)cc3)ncnc21  GFP response vs DMSO            %   92.7
12   CCc1ccc2c(c1)/C(=C/C(=O)c1cccs1)C(=O)N2  GFP response vs DMSO            %   94.9
13  CCOc1cc(N2CCOCC2)c(OCC)cc1NC(=O)C(NC(=O)c1ccco1)C(C)C (stereo unspecified)  GFP response vs DMSO            %    102
14        COc1cccc(C(=O)/C=C/c2ccc(SC)cc2)c1  GFP response vs DMSO            %   98.6
15  COc1cccc2c1Oc1ncccc1N(C(=O)CCC(=O)NCc1ccc(C)cc1)C2  GFP response vs DMSO            %    101
16                     Oc1ccc(N=Nc2ccccc2)o1  GFP response vs DMSO            %    111
17        CCOc1ccc(-c2noc(-c3cccnc3)n2)cc1OC  GFP response vs DMSO            %   97.2
18  O=C1C2C3C=CC(CO)(O3)C2C(=O)N1c1ccc(-c2ccccc2)cc1 (stereo unspecified)  GFP response vs DMSO            %    109
19  C=CCn1c(=O)c(C(=O)NCCc2ccccc2)c(O)c2ccccc21  GFP response vs DMSO            %   98.4
20  CCNC(=O)/C(C#N)=C/c1c(N(Cc2ccccc2)Cc2ccccc2)nc2ccccn2c1=O  GFP response vs DMSO            %    101
21  Cc1cccc(Sc2ccc([N+](=O)[O-])cc2[N+](=O)[O-])n1  GFP response vs DMSO            %    102
22          CCOC(=O)C(=Cc1ccc(F)cc1)C(=O)OCC  GFP response vs DMSO            %    101
23          COc1ccc(N=Nc2ccc(O)c3ncccc23)cc1  GFP response vs DMSO            %   99.5
24              Cc1ccc(CN2CCSc3sccc3C2=O)cc1  GFP response vs DMSO            %   84.4
25  CC(NCCS(=O)(=O)c1ccc(Cl)cc1)c1cccc(Cl)c1 (stereo unspecified)  GFP response vs DMSO            %   95.1
26  CCS(=O)(=O)Nc1cccc(C2=NN(S(C)(=O)=O)C(c3ccccc3)C2)c1 (stereo unspecified)  GFP response vs DMSO            %    100
27        COc1ccc(-c2[nH]ncc2N=Nc2ccccc2)cc1  GFP response vs DMSO            %   96.2
28      N/C(=N\OC(=O)c1ccccc1Cl)c1ccc(Cl)cc1  GFP response vs DMSO            %    101
29  O=S(=O)(c1ccccc1)N1N=C(c2cccs2)CC1c1ccc(F)cc1 (stereo unspecified)  GFP response vs DMSO            %   99.7
30  O=C(Nc1ccc(NC(=O)c2cc3ccccc3o2)cc1)c1ccco1  GFP response vs DMSO            %    100
31          NC(=O)C1CCN(C(=S)NCCc2ccccc2)CC1  GFP response vs DMSO            %   97.3
32  CC1=NNC(=O)/C1=C\c1cn(-c2ccccc2)nc1-c1ccc(Cl)cc1  GFP response vs DMSO            %   97.6
33  CCOC(=O)c1ccc(NC(=O)CCc2nc(-c3cccc(C)c3)no2)cc1  GFP response vs DMSO            %   97.8
34  CCCCNc1c(-c2ccc(SC(C)CC)cc2)nc2ccccn12 (stereo unspecified)  GFP response vs DMSO            %   94.2
35         O=C1C=CC(=O)N1N(c1ccccc1)c1ccccc1  GFP response vs DMSO            %   96.2
36  COC(=O)c1ccc(/C=C/C(=O)c2ccc(OC)c(OC)c2)cc1  GFP response vs DMSO            %    101
37  COc1ccccc1CNC(=O)CS(=O)Cc1nc(-c2ccc(OC)c(OC)c2)oc1C (stereo unspecified)  GFP response vs DMSO            %   97.2
38  COc1ccc(OC(=O)c2cc(S(=O)(=O)N3CCCC3)ccc2Cl)cc1  GFP response vs DMSO            %   97.6
39      Cc1cccc(N=c2oc3cc(O)ccc3cc2C(N)=O)c1  GFP response vs DMSO            %   96.5
40  Cc1cccc(N=c2c([N+](=O)[O-])nn(-c3ccc(Cl)cc3)n2O)c1  GFP response vs DMSO            %     97
41      Cc1ccc(C=C2C(Cl)=C(Cl)C(Cl)=C2Cl)cc1  GFP response vs DMSO            %    103
42  O=C(Nc1cccc(C(F)(F)F)c1)Oc1ccc(Cl)c2cccnc12  GFP response vs DMSO            %     98
43     Oc1ccccc1/C=N/c1c(-c2ccco2)nc2ccccn12  GFP response vs DMSO            %   99.5
44    C/C(=N\NC(=O)c1cccc(Br)c1)c1ccc(Br)cc1  GFP response vs DMSO            %   96.7
45  C=CCn1c(=O)c(C(=O)Nc2ccccc2O)c(O)c2ccccc21  GFP response vs DMSO            %   99.8
46  COc1ccc(N2C(=O)C(Cl)=C(Nc3ccccc3O)C2=O)cc1  GFP response vs DMSO            %   99.6
